Assayed Target: human FPR1 receptors (Homo sapiens, UniProt P21462)
Sequence (P21462 1-350): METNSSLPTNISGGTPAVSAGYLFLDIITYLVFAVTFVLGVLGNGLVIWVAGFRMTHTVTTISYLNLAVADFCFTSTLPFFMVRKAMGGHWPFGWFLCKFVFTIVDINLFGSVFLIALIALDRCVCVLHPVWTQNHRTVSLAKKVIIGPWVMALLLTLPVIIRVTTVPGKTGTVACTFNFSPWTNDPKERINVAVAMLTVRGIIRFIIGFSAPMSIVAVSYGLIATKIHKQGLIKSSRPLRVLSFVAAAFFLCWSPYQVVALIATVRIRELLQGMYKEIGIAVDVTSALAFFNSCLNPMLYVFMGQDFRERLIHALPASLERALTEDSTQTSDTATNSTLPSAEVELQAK
Protocol Text: FPR1 cyclic adenosine monophosphate (cAMP) assay
Cond: CHO cells overexpressing human FPR1; forskolin 10 μM, IBMX 200 μM; 30 min at rt; inhibition of cAMP production (HTRF); read-out: hFPR1 cAMP EC50
Parameter: EC50 (nM)

These recorded examples may help you get a feel for the data.
1. CP(C)(=O)c1ccccc1-c1ccc(N2CCC[C@@H](NC(=O)Nc3ccc(Cl)cc3F)C2=O)cn1 : 140
2. CCP(=O)(CC)c1ccccc1-c1cc(F)c(N2CCC[C@@H](NC(=O)Nc3ncc(Cl)cc3F)C2=O)c(F)c1 : 7000
3. CCP(=O)(CC)c1ccccc1-c1cc(F)c(N2CCC[C@@H](NC(=O)Nc3ccc(Cl)cc3F)C2=O)c(F)c1 : 420

[a] COc1ccc(NC(=O)N[C@@H]2CCCN(c3ccc(-c4ccccc4P(C)(C)=O)c(F)c3F)C2=O)c(F)c1
[b] CP(C)(=O)c1ccccc1-c1ccc(N2CCC[C@@H](NC(=O)Nc3ccc(C(F)(F)F)cc3F)C2=O)c(F)c1F
For the pair a and b , which member has the lower EC50 number? Respond using the label that marks the chosen record.
b

----------
Assayed Target: human FPR2 receptors (Homo sapiens)
Protocol Text: FPR2 cyclic adenosine monophosphate (cAMP) assay
Cond: CHO cells overexpressing human FPR2; forskolin 5 μM, IBMX 200 μM; 30 min at rt; inhibition of cAMP production (HTRF); read-out: hFPR2 cAMP2 EC50
pEC50: −log10 of the molar value.
Parameter: pEC50

Previously resolved entries follow.
1) CCP(=O)(CC)c1ccccc1-c1cc(F)c(N2CCC[C@@H](NC(=O)Nc3ccc(Cl)cc3F)C2=O)c(F)c1 [Example 3] : 9.77
2) CCP(=O)(CC)c1ccccc1-c1ccc(N2CCC[C@@H](NC(=O)Nc3ncc(Cl)cc3F)C2=O)c(F)c1F [Example 14] : 8.22
3) CP(C)(=O)c1ccccc1-c1ccc(N2CCC[C@@H](NC(=O)Nc3ncc(C(F)(F)F)cc3F)C2=O)c(F)c1F [Example 18] : 7.94
4) CP(C)(=O)c1ccccc1-c1cc(F)c(N2CCC[C@@H](NC(=O)Nc3ccc(C(F)(F)F)cc3F)C2=O)c(F)c1 [Example 11] : 8.59
5) CP(C)(=O)c1ccccc1-c1ccc(N2CCC[C@@H](NC(=O)Nc3ccc(C(F)(F)F)cc3F)C2=O)c(F)c1F [Example 2] : 9.74
6) CP(C)(=O)c1ccccc1-c1cc(F)c(N2CCC[C@@H](NC(=O)Nc3ccc(OC(F)(F)F)cc3)C2=O)c(F)c1 [Example 21] : 7.66
7) CP(C)(=O)c1ccccc1-c1ccc(N2CCC[C@@H](NC(=O)Nc3ncc(Cl)cc3F)C2=O)c(C2CC2)c1 [Example 4] : 9.20
8) CP(C)(=O)c1ccccc1-c1ccc(N2CCC[C@@H](NC(=O)Nc3cnc(Cl)cn3)C2=O)c(F)c1F [Example 8] : 8.82

[1] CP(C)(=O)c1ccccc1-c1cc(F)c(N2CCC[C@@H](NC(=O)Nc3cnc(Cl)cn3)C2=O)c(F)c1 [Example 17]
[2] CP(C)(=O)c1ccccc1-c1ccc(N2CCC[C@@H](NC(=O)Nc3ccc(Cl)cc3F)C2=O)c(C2CC2)c1 [Example 5]
Compare 1 and 2 and name the one whose reported pEC50 is smaller. Bench note: the answer is the label of the chosen record.
1
(1: 8.07, 2: 9.12)

----------
Assayed Target: UniProtKB P21462
Protocol Text: FPR1 cyclic adenosine monophosphate (cAMP) assay
Cond: CHO cells overexpressing human FPR1; forskolin 10 μM, IBMX 200 μM; 30 min at rt; inhibition of cAMP production (HTRF); read-out: hFPR1 cAMP EC50
Parameter: EC50 (nM)

Here's what some known entries look like.
1. CP(C)(=O)c1ccccc1-c1ccc(N2CCC[C@@H](NC(=O)Nc3ncc(Cl)cc3F)C2=O)c(F)c1F [Example 9] : 1400
2. COc1ccc(NC(=O)N[C@@H]2CCCN(c3c(F)cc(-c4ccccc4P(C)(C)=O)cc3F)C2=O)cc1 [Example 13] : 2400
3. CP(C)(=O)c1ccccc1-c1ccc(N2CCC[C@@H](NC(=O)Nc3ncc(Cl)cc3F)C2=O)c(C2CC2)c1 [Example 4] : 7.1
4. CP(C)(=O)c1ccccc1-c1ccc(N2CCC[C@@H](NC(=O)Nc3ccc(OC(F)(F)F)cc3F)C2=O)c(F)c1F [Example 16] : 1800
5. CP(C)(=O)c1ccccc1-c1cc(F)c(N2CCC[C@@H](NC(=O)Nc3ccc(Cl)cc3F)C2=O)c(F)c1 [Example 7] : 2600

[P] CP(C)(=O)c1ccccc1-c1ccc(N2CCC[C@@H](NC(=O)Nc3ccc(OC(F)(F)F)cc3)C2=O)c(F)c1F [Example 10]
[Q] CP(C)(=O)c1ccccc1-c1ccc(N2CCC[C@@H](NC(=O)Nc3ccc(Cl)cc3F)C2=O)c(F)c1F [Example 1]
Response body: label of entry with the larger EC50; valid values P , Q . Write down the label of the entry you select.
P

[a] CP(C)(=O)c1ccccc1-c1ccc(N2CCC[C@@H](NC(=O)Nc3cnc(Cl)cn3)C2=O)c(F)c1F [Example 8]
[b] CP(C)(=O)c1ccccc1-c1cc(F)c(N2CCC[C@@H](NC(=O)Nc3ccc(C(F)(F)F)cc3F)C2=O)c(F)c1 [Example 11]
Parameter metric = EC50. Return the lower-valued option from a and b . Reply briefly: the label of your chosen item.
a
(a: 1100 nM, b: 1700 nM)

[P] CCP(=O)(CC)c1ccccc1-c1ccc(N2CCC[C@@H](NC(=O)Nc3ncc(Cl)cc3F)C2=O)c(F)c1F [Example 14]
[Q] CP(C)(=O)c1ccccc1-c1ccc(N2CCC[C@@H](NC(=O)Nc3ccc(Cl)cc3F)C2=O)c(C2CC2)c1 [Example 5]
Could you please tell me which of these two has the higher EC50: P or Q ? // caller expects the label of the chosen entry
P
(P: 1500 nM, Q: 17 nM)

----------
Assayed Target: UniProtKB P25090
Protocol Text: FPR2 cyclic adenosine monophosphate (cAMP) assay
Cond: CHO cells overexpressing human FPR2; forskolin 5 μM, IBMX 200 μM; 30 min at rt; inhibition of cAMP production (HTRF); read-out: hFPR2 cAMP2 EC50
Parameter: EC50 (nM)

Worked cases, EC50 given:
1) CP(C)(=O)c1ccccc1-c1ccc(N2CCC[C@@H](NC(=O)Nc3ccc(C(F)(F)F)cn3)C2=O)c(F)c1F : 2.7
2) CP(C)(=O)c1ccccc1-c1ccc(N2CCC[C@@H](NC(=O)Nc3ncc(Cl)cc3F)C2=O)c(F)c1F : 2.2
3) CP(C)(=O)c1ccccc1-c1cc(F)c(N2CCC[C@@H](NC(=O)Nc3ncc(Cl)cc3F)C2=O)c(F)c1 : 43.2
4) CP(C)(=O)c1ccccc1-c1ccc(N2CCC[C@@H](NC(=O)Nc3ccc(Cl)cc3F)C2=O)c(F)c1F : 0.12
5) COc1ccc(NC(=O)N[C@@H]2CCCN(c3ccc(-c4ccccc4P(C)(C)=O)c(F)c3F)C2=O)c(F)c1 : 0.86

[P] CP(C)(=O)c1ccccc1-c1ccc(N2CCC[C@@H](NC(=O)Nc3ccc(Cl)cc3F)C2=O)cn1
[Q] CP(C)(=O)c1ccccc1-c1cc(F)c(N2CCC[C@@H](NC(=O)Nc3ccc(Cl)cc3F)C2=O)c(F)c1
Which of these two has the smaller recorded EC50: P or Q ? Mark your answer with the label of the selected entry.
Q
(Q: 0.79 nM, P: 16.7 nM)

----------
Assayed Target: human FPR2 receptors (Homo sapiens, UniProt P25090)
Sequence (P25090 whole entry): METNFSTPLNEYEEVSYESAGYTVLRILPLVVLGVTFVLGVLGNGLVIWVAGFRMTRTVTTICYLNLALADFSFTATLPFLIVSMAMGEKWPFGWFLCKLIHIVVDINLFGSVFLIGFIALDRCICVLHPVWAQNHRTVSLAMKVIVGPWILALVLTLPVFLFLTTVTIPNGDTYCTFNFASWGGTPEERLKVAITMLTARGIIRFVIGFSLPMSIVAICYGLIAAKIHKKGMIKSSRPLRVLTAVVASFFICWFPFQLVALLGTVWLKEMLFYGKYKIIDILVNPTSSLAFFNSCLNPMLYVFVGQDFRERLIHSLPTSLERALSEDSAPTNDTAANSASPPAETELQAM
Protocol Text: FPR2 cyclic adenosine monophosphate (cAMP) assay
Cond: CHO cells overexpressing human FPR2; forskolin 5 μM, IBMX 200 μM; 30 min at rt; inhibition of cAMP production (HTRF); read-out: hFPR2 cAMP2 EC50
Parameter: EC50 (nM)

1) CCP(=O)(CC)c1ccccc1-c1cc(F)c(N2CCC[C@@H](NC(=O)Nc3ncc(Cl)cc3F)C2=O)c(F)c1 : 8.3

[A] CP(C)(=O)c1ccccc1-c1ccc(N2CCC[C@@H](NC(=O)Nc3ccc(OC(F)(F)F)cc3F)C2=O)c(F)c1F
[B] CP(C)(=O)c1ccccc1-c1ccc(N2CCC[C@@H](NC(=O)Nc3ccc(OC(F)(F)F)cc3)C2=O)c(F)c1F
[C] COc1ccc(NC(=O)N[C@@H]2CCCN(c3c(F)cc(-c4ccccc4P(C)(C)=O)cc3F)C2=O)cc1
Arrange the 3 compounds from largest to smallest EC50. Answer by naming the labels in the order asked.
A, C, B
(A: 8.4 nM, C: 5.6 nM, B: 1.4 nM)
